Tested on: HOP-62
Assay: NCI tumour cell line growth inhibition, 48 h
The source made the active and inactive calls. Cut-off read from the data, not from the text of the source: active = GI50 up to about 1.1 µM and inactive = higher.
Thanks in advance; please answer with one of these: active, inactive

Incoming: Call for entry C[C@@H](CC(O)C(O)C(C)(C)O)C1CCC23CC12CCC1[C@@]2(C)CCC(O)C(C)(C)C2CC(OC2OC(CO)C(O)C(O)C2O)[C@]13C (stereo partly specified) :
Outgoing: inactive

Incoming: Now consider COc1ccc(/C=[N+](\[O-])[C@H](COCc2ccccc2)c2ccccc2)cc1 .
Outgoing: inactive

Incoming: Continue with O=C1C2C(C(=O)N1OS(=O)(=O)c1ccccc1)N(Cc1ccccc1)C(=O)N2Cc1ccccc1 (stereo unspecified)
Outgoing: inactive

Incoming: Moving on to the next molecule: C=C1C2C[C@@H]3O[C@H]4C[C@H]5O[C@@]6(C[C@@H]7O[C@]8(C[C@H](C)[C@@H]9O[C@@H]%10CC(C=O)O[C@@H]%10C[C@@H]9O8)C[C@H](C)[C@@H]7O6)C[C@H]5O[C@H]4[C@H](C)[C@H]3OC(=O)C[C@H]3CC[C@@H]4OC5[C@H]6O[C@]7(CC[C@H]8CC(=C)[C@H](CC[C@@H](C[C@H]1C)O2)O8)CC6O[C@@H]5[C@@H](O7)[C@H]4O3 (stereo partly specified)
Outgoing: active

Incoming: What about CC(=O)Oc1ccc2c3c1[C@@H]1O[C@@H]1c1cccc(c1-3)[C@@H]1O[C@H]21 ?
Outgoing: inactive

---
Incoming: Can you look up the reported call for CCC1CN2CCC1CC2 (stereo unspecified) for me?
Outgoing: inactive

* * *

Test system: SK-OV-3
Test: NCI tumour cell line growth inhibition, 48 h
Calls of active or inactive are those of the source. Cut-off read from the data, not from the text of the source: active = GI50 up to about 1.1 µM and inactive = higher.
RECORDED_METRIC: GI50

Please review the following examples before continuing.
Incoming: Endpoint output: GI50 of CC(C)(C)OC(=O)NCCCCCCC(=O)Cc1ccccc1 . Value?
Outgoing: > 100 µM (inactive)

Incoming: // next record COc1cccc(NC(=O)CC(=O)N2N=C(N(CCC#N)c3ccc(Cl)cc3)CC2c2ccccc2)c1 (stereo not given)
Outgoing: > 100 µM (inactive)

Incoming: Same lookup for CC(=O)OC1COC(N2C(=O)C(=O)c3cc(Br)c([N+](=O)[O-])cc32)C(OC(C)=O)C1OC(C)=O (stereo not given) , please.
Outgoing: 96.8 µM (inactive)

More entries:
Incoming: Quick check: GI50 of Cc1nnc2cc(C(=O)O)c3ccccc3n2c1=O ?
Outgoing: > 10 µM (inactive)

Incoming: Now consider CCOC(=O)c1cc(C)nc2c1c(=O)n(-c1ccccc1)c(=O)n2CCCCN1CCN(c2ncccn2)CC1 and answer again.
Outgoing: > 100 µM (inactive)

Incoming: What would you report for CC(=O)O[C@H]1[C@@H](OC2CCCC2(c2ccccc2)c2ccccc2)O[N+]([O-])=C[C@@]12COCc1cc3c(cc12)OCO3 (stereo not given in full) ?
Outgoing: 30.1 µM (inactive)

Incoming: Another molecule to check: CC1=C2C(=C[C@H]3[C@]4(C)CCCC(C)(C)[C@H]4CC[C@]34O[C@H]24)OC1=O
Outgoing: > 100 µM (inactive)

Incoming: Same thing, different molecule: C=CCCCC1(C)CCNC1=S (stereo not given)
Outgoing: > 100 µM (inactive)

Incoming: Queued: CCCN(CCC)C1CC(n2cc(C)c(=O)[nH]c2=O)OC1CO (stereo not given)
Outgoing: > 100 µM (inactive)

Incoming: Another molecule to look at: CCCCCCCCC[C@@H]1C[C@H](O)[C@H](Cc2ccccc2)N1C(=O)OC(C)(C)C
Outgoing: 19.6 µM (inactive)

* * *

System: HCT-15
RECORDED_METRIC: GI50

Incoming: Any idea what its GI50 is? The compound is CCC(=O)N1C(=O)OCC1C(C)C (stereo not given)
Outgoing: > 100 µM

Incoming: Same for CN1CCN(c2ncc3c(n2)sc2c(=O)n(-c4ccccc4)cnc23)CC1
Outgoing: > 100 µM

Incoming: Lookup COC(=O)C(CC=O)C(=O)C(=O)Nc1cccc(C(F)(F)F)c1 (stereo not given)
Outgoing: > 100 µM

Others:
Incoming: Returns the measured GI50 for the input compound. Input: CCCN(CCCCN1C(=O)c2ccccc2C1=O)CC1COc2ccccc2O1 (stereo not given)
Outgoing: 52.2 µM

Incoming: Moving on to COC(=O)CN1C(=O)C2(C(=O)OC)OC1(c1ccc([N+](=O)[O-])cc1)C1C(=O)N(c3ccccc3)C(=O)C12 (stereo not given)
Outgoing: > 100 µM

* * *

System: NCI/ADR-RES
Test: NCI tumour cell line growth inhibition, 48 h
Activity calls are given as the source filed them. Cut-off read from the data, not from the text of the source: active = GI50 up to about 1.1 µM and inactive = higher.
# output must be one of T = active, F = inactive

Incoming: Test call for this compound, please: O=[N+]([O-])/C(C(Cl)=C(Cl)Cl)=C(/Cl)SCc1ccccc1
Outgoing: F

Incoming: Also need CCOP(=O)(OCC)/C(C#N)=C/c1cccn1Cc1ccccc1 , thanks.
Outgoing: F

Incoming: And what about the compound N#Cc1c(-c2ccc(Cl)cc2)cc(-c2ccc(Nc3ccnc4cc(Cl)ccc34)cc2)[nH]c1=O ?
Outgoing: F

Next:
Incoming: What call does the record list for COC1=C2C=[N+](C)C3C(=C2C=CC1OC)Cc1cc2c(cc13)OCO2 (centres undefined) ?
Outgoing: F

Incoming: And what about the compound CC(C)=CC(=O)O[C@@H]1CC(C)(C)CC2C3=CCC4[C@]56CC[C@](O)(OC5)C(C)(C)C6CC[C@@]4(C)C3(C)CC[C@]21C(=O)O (some centres undefined) ?
Outgoing: F

Incoming: Same question for COc1cccc2c1C(CO)N1C(C#N)C3CC(C(=O)O)C(C1C2)N3C (centres undefined) please.
Outgoing: T

Incoming: Could you do the same for O=C(O)/C=C/c1c[nH]cn1 , please?
Outgoing: F

Incoming: // same read-out, input: COc1ccc(/C=N/n2c(=O)[nH]c3ccccc3c2=O)cc1
Outgoing: F

Incoming: Follow-up item: Cc1ccc(O)c(C(c2cc(C)ccc2O)c2cc([N+](=O)[O-])ccc2O)c1
Outgoing: F

Incoming: Here is the next compound: O=C1N2CCN=C2c2ccccc2C1(O)c1ccccc1 (centres undefined)
Outgoing: F

Incoming: // same read-out, input: COc1cc(/C=C2/CCS(=O)(=O)c3ccc(C)cc3C2=O)cc(OC)c1OC
Outgoing: F

Incoming: Here is the next compound: CCOP(=O)(OCC)/C(F)=C/c1ccc(F)cc1
Outgoing: F

Incoming: Follow-up entry: Cc1nnc2sc(N/N=C/c3ccccc3)nn12
Outgoing: F

Incoming: Also need CC(O)CNC(=O)Nc1c(C(F)(F)F)cc(-c2ccccc2)[nH]c1=O (centres undefined) , thanks.
Outgoing: F

Incoming: How about this compound: CC1CC(Nc2ccc(Br)cc2)N(C(=O)c2ccc(Br)cc2)O1 (centres undefined)
Outgoing: F

Incoming: Then what about the compound CC1C(c2ccccc2)OP(=O)(OC(C#N)c2ccccc2)N1C (centres undefined) ?
Outgoing: F

* * *

Test system: SNB-75
Test: NCI tumour cell line growth inhibition, 48 h
Active and inactive are the calls of the source. No stated cut-off is given here; in the data, active = GI50 up to about 1.1 µM and inactive = higher.
RECORDED_METRIC: GI50

Incoming: What measured GI50 goes with CC(C)(C)[Si](C)(C)OCC1CCC(n2cnc3c(N)ncnc32)O1 (stereo not given) ?
Outgoing: 67.8 µM (inactive)

Incoming: Would you mind doing O=c1c2cccnc2n2n1Cc1ccccc1C2 as well?
Outgoing: > 100 µM (inactive)

Incoming: Another compound to check: C[n+]1cccc(NC(=O)c2ccc(NC(=O)C34CCC(C(=O)Nc5ccc(C(=O)Nc6ccc[n+](C)c6)cc5)(CC3)CC4)cc2)c1
Outgoing: 2.84 µM (inactive)

Incoming: Let us now turn to CC(=O)O[C@H]1[C@@H](OC2CCCC2(c2ccccc2)c2ccccc2)O[N+]([O-])=C[C@@]12COCc1cc3c(cc12)OCO3 (stereo not given in full)
Outgoing: 4.11 µM (inactive)

---
Incoming: Give the measured GI50 of Nc1n[n+]([O-])c2cc([N+](=O)[O-])ccc2[n+]1[O-] .
Outgoing: 26.7 µM (inactive)

* * *

Test system: MCF7
Test: NCI tumour cell line growth inhibition, 48 h
Activity calls are given as the source filed them. Cut-off read from the data, not from the text of the source: active = GI50 up to about 1.1 µM and inactive = higher.
Overview of reported GI50 across a group of compounds:

Example entries begin here.
Incoming: Request body: readout GI50, system MCF7, query COc1cc(/C=C2/CCS(=O)(=O)c3ccc(C)cc3C2=O)cc(OC)c1OC . Return the value.
Outgoing: 4.19 µM (inactive)

Incoming: Would you mind doing CC1(C)C=Cc2c(cc(O)c3c(=O)c4cc(Cl)ccc4[nH]c23)O1 as well?
Outgoing: 2.88 µM (inactive)

Incoming: Entry CC(C)(C)C1=CC(O)(c2c3ccccc3c(C3(O)C=C(C(C)(C)C)C(=O)C(C(C)(C)C)=C3)c3ccccc23)C=C(C(C)(C)C)C1=O please
Outgoing: > 100 µM (inactive)

Incoming: Would you mind doing c1cc(-c2ccc(-c3ccsc3)s2)cs1 as well?
Outgoing: 50.5 µM (inactive)

Incoming: Next compound up: CCOC(=O)C(CC#Cc1ccc(C#CCC(NC(C)=O)C(=O)OCC)cc1)NC(C)=O (stereo not given)
Outgoing: > 100 µM (inactive)

New cases:
Incoming: GET /values?readout=GI50&system=MCF7&item= O=C1CSC2=NC3=C(CSC/C3=C\c3ccccc3)C(c3ccccc3)N12 (stereo not given)
Outgoing: 33.3 µM (inactive)

Incoming: Let us now turn to Clc1ncc(C(Cl)(Cl)Cl)nc1-c1ccccc1
Outgoing: 1.68 µM (inactive)

Incoming: One more compound: CC(=O)Oc1ccc2ccc(=O)oc2c1OC(C)=O
Outgoing: 46.3 µM (inactive)

Incoming: Likewise for Cn1c(=O)c2c(no[n+]2[O-])c2ccccc21 ?
Outgoing: 24.7 µM (inactive)

Incoming: Also O=c1c2cc(-c3ccccc3)cnc2sn1-c1ccc([N+](=O)[O-])cc1 , if possible.
Outgoing: 49 µM (inactive)
